study-target: KRAS-WT (Homo sapiens, UniProt P01116)
Sequence (P01116 with tags, fused parts or gaps isoform P01116-2): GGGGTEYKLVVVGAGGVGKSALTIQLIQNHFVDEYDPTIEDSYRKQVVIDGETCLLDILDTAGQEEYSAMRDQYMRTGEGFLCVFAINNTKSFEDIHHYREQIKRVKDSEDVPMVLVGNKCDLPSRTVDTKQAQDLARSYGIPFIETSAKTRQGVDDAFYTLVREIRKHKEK
method-description: SOS-catalyzed nucleotide exchange assay (Procedure A, TR-FRET), KRAS-WT
Format: biochemical
test-parameters: nucleotide exchange, read-out: KRAS WT GNE IC50
observed-property: pIC50
Notebook: values listed as pIC50 are -log10 of the concentration (mol/L).

Recall the reported pIC50 of F[C@H]1CN2CCC[C@@]2(COc2nc(N3CCCOCC3)c3c(n2)sc2c(-c4c(C5CC5)c(Cl)cc5[nH]ncc45)nncc23)C1 [Ex-286] on KRAS-WT (Homo sapiens, UniProt P01116) and write it down.
7.28

Recall the reported pIC50 of Cc1cc2cnn(C)c2c(-c2nccc3c2sc2nc(OC[C@@]45CCCN4C[C@H](F)C5)nc(N4CCOC[C@@](C)(O)C4)c23)c1C(F)(F)F [Ex-157] on KRAS-WT (Homo sapiens, UniProt P01116) and write it down.
5.02

Recall the reported pIC50 of C[C@@]1(O)COCCN(c2nc(OC[C@]3(CN4CCC[C@H]4CF)CC3(F)F)nc3sc4c(-c5c(C6(F)CC6)c(Cl)cc6[nH]ncc56)nccc4c23)C1 [Ex-247] on KRAS-WT (Homo sapiens, UniProt P01116) and write it down.
6.45

Recall the reported pIC50 of C=C1CN2C[C@@H](OC)C[C@@]2(COc2nc(N3CCOC[C@@](C)(O)C3)c3c(n2)sc2c(-c4c(C5CC5)c(Cl)cc5[nH]ncc45)nccc23)C1 [Ex-227] on KRAS-WT (Homo sapiens, UniProt P01116) and write it down.
7.73

Recall the reported pIC50 of C[C@@]1(O)COCCN(c2nc(OC[C@]3(CN4CCC5(CC4)CC5)CC3(F)F)nc3sc4c(-c5c(C6(F)CC6)c(Cl)cc6[nH]ncc56)nccc4c23)C1 [Ex-233] on KRAS-WT (Homo sapiens, UniProt P01116) and write it down.
6.82

Recall the reported pIC50 of C[C@@]1(O)COCCN(c2nc(OC[C@@]34CCCN3C[C@H](F)C4)nc3sc4c(-c5c6ccccc6cc6[nH]ncc56)nccc4c23)C1 [Ex-170] on KRAS-WT (Homo sapiens, UniProt P01116) and write it down.
7.05

----------
study-target: KRAS-G12C (C51S/C80L/C118S) (Homo sapiens, UniProt P01116, C118S/C51S/C80L/G12C)
Sequence (P01116 with tags, fused parts or gaps isoform P01116-2 G12C/C51S/C80L/C118S): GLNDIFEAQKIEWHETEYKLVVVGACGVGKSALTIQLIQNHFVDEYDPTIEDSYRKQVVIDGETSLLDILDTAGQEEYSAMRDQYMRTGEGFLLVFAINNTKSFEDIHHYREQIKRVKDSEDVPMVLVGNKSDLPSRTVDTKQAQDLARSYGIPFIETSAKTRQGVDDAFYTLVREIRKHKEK
method-description: SOS-catalyzed nucleotide exchange assay (Procedure A, TR-FRET), KRAS-G12C
Type: biochemical
test-parameters: nucleotide exchange, Procedure A; read-out: KRAS G12C GNE IC50
Threshold-based label: IC50 under 60 nM gives T, IC50 not under 60 nM gives F.

Problem: For the compound Cc1cc2[nH]ncc2c(-c2nncc3c2sc2nc(OC[C@@]45CCCN4C[C@H](F)C5)nc(N4CCOC[C@@](C)(O)C4)c23)c1C1CC1 , is IC50 under 60 nM?
F

Problem: For the compound Cc1cc2[nH]ncc2c(-c2nccc3c2sc2nc(OC[C@@]45CCCN4C[C@H](F)C5)nc(N4CCOC[C@@](C)(O)C4)c23)c1C(F)(F)F , is IC50 under 60 nM?
T

Problem: For the compound C#Cc1cccc2[nH]nc(-c3nccc4c3sc3nc(OC[C@@]56CCCN5C[C@H](F)C6)nc(N5CCOC[C@@](C)(O)C5)c34)c12 , is IC50 under 60 nM?
T

Problem: For the compound Cc1cc2[nH]ncc2c(-c2nccc3c2sc2nc(OC[C@@]45CCCN4C[C@H](F)C5)nc(N4CCOC[C@@](C)(O)C4)c23)c1C#N , is IC50 under 60 nM?
F

Problem: For the compound C=C1CN2CCC[C@@]2(COc2nc(N3CCOC[C@@](C)(O)C3)c3c(n2)sc2c(-c4c(C5CC5)c(Cl)cc5[nH]ncc45)nccc23)C1 , is IC50 under 60 nM?
T

Problem: For the compound Cn1c2nc(OC[C@@]34CCCN3C[C@H](F)C4)nc(N3CCOC[C@@](C)(O)C3)c2c2ccnc(-c3ccc(F)c4sc(N)c(C#N)c34)c21 , is IC50 under 60 nM?
F

Problem: For the compound Cc1cc2[nH]ncc2c(-c2nccc3c2oc2nc(OC[C@]4(CN(C)C)CC4(F)F)nc(N4CCOC[C@@](C)(O)C4)c23)c1C(F)F , is IC50 under 60 nM?
F

Problem: For the compound Cc1cc2[nH]ncc2c(-c2nccc3c2sc2nc(OC[C@@]45CCCN4C[C@H](F)C5)nc(NC4(CO)COC4)c23)c1C(F)(F)F , is IC50 under 60 nM?
F

Problem: For the compound C[C@H]1CCN1C[C@@]1(COc2nc(N3CCOC[C@@](C)(O)C3)c3c(n2)sc2c(-c4c(C5(F)CC5)c(Cl)cc5[nH]ncc45)nccc23)CC1(F)F , is IC50 under 60 nM?
T

Problem: For the compound CN1CCC[C@@]2(COc3nc(N4CCOC[C@@](C)(O)C4)c4c(n3)sc3c(-c5c(C6CC6)c(C(F)(F)F)cc6[nH]ncc56)nccc34)CCC[C@@H]12 , is IC50 under 60 nM?
T

Problem: For the compound C#Cc1csc2cc3[nH]ncc3c(-c3nccc4c3sc3nc(OC[C@@]56CCCN5C[C@H](F)C6)nc(N5CCOC[C@@](C)(O)C5)c34)c12 , is IC50 under 60 nM?
T

Problem: For the compound C=C(C)c1c(C)cc2[nH]ncc2c1-c1nncc2c1sc1nc(OC[C@@]34CCCN3C[C@H](F)C4)nc(N3CCOC[C@@](C)(O)C3)c12 , is IC50 under 60 nM?
F

Problem: For the compound C[C@@]1(O)COCCN(c2nc(OC[C@]3(CN4CC5(CC(F)C5)C4)CC3(F)F)nc3sc4c(-c5c(C6CC6)c(Cl)cc6[nH]ncc56)nccc4c23)C1 , is IC50 under 60 nM?
T

Problem: For the compound Cc1cc2[nH]ncc2c(-c2nccc3c2sc2nc(OC[C@]4(CN(C)C)CC4(F)F)nc(N4CCOC[C@@](C)(O)C4)c23)c1C(F)(F)F , is IC50 under 60 nM?
F

Problem: For the compound Cn1c2nc(OC[C@@]34CCCN3C[C@H](F)C4)nc(N3CCOC[C@@](C)(O)C3)c2c2ccnc(-c3c(C(F)F)c(Cl)cc4[nH]nc(C#N)c34)c21 (single isomer, unassigned) , is IC50 under 60 nM?
F

Problem: For the compound CN1CCC[C@H]1COc1nc(N2CCOC[C@@](C)(O)C2)c2c(n1)sc1c(-c3c(C4CC4)c(C(F)(F)F)cc4[nH]ncc34)nccc12 , is IC50 under 60 nM?
T

Problem: For the compound Cc1cc2[nH]ncc2c(-c2nccc3c4c(N5CCC[C@@](C)(O)C5)nc(OC[C@@]56CCCN5C[C@H](F)C6)nc4n(C)c23)c1C(F)(F)F (single isomer, unassigned) , is IC50 under 60 nM?
F

Problem: For the compound Cn1c2nc(OC[C@@]34CCCN3C[C@H](F)C4)nc(N3CCOC[C@@](C)(O)C3)c2c2ccnc(-c3c(C(F)F)c(Cl)cc4[nH]ncc34)c21 (single isomer, unassigned) , is IC50 under 60 nM?
T

Problem: For the compound Cc1cc2[nH]ncc2c(-c2nccc3c2sc2nc(OC[C@@]45CCCN4C[C@H](F)C5)nc(NC45CC(O)(C4)C5)c23)c1C(F)(F)F , is IC50 under 60 nM?
F

Problem: For the compound C[C@@]1(O)COCCN(c2nc(OC[C@@]34CCCN3C[C@@]3(CC3(F)F)C4)nc3sc4c(-c5c(C6CC6)c(Cl)cc6[nH]ncc56)nccc4c23)C1 , is IC50 under 60 nM?
T

Problem: For the compound Cc1cc2[nH]ncc2c(-c2nccc3c2oc2nc(OC[C@@]45CCCN4C[C@H](F)C5)nc(N4CCOC[C@@](C)(O)C4)c23)c1C(F)(F)F , is IC50 under 60 nM?
F

Problem: For the compound Cc1cc2[nH]ncc2c(-c2nccc3c2sc2nc(OC[C@@]45CCCN4C[C@H](F)C5)nc(N4CCOC[C@@](C)(O)C4)c23)c1C1CC1 , is IC50 under 60 nM?
F

Problem: For the compound Cc1cc2[nH]ncc2c(-c2nccc3c4c(N5CCOC[C@@](C)(O)C5)nc(OC[C@@]56CCCN5C[C@H](F)C6)nc4n(C)c23)c1C(F)(F)F (single isomer, unassigned) , is IC50 under 60 nM?
T

----------
Kindly supply the reported IC50 values for the records listed here.
study-target: KRAS-G12V (Homo sapiens, UniProt P01116, G12V)
Sequence (P01116 with tags, fused parts or gaps isoform P01116-2 G12V): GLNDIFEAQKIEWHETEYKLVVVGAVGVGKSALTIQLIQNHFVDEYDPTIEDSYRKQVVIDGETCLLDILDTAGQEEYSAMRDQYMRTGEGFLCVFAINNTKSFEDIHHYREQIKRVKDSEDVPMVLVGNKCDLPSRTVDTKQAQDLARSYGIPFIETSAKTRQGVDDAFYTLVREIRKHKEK
method-description: SOS-catalyzed nucleotide exchange assay (Procedure A, TR-FRET), KRAS-G12V
Assay type: biochemical
test-parameters: nucleotide exchange, read-out: KRAS G12V GNE IC50
// units = nM; emit number, no label

Fill in reported IC50 for this entry: CN(C)C[C@@]1(COc2nc(N3CCOC[C@@](C)(O)C3)c3c(n2)sc2c(-c4c(C5(F)CC5)c(Cl)cc5[nH]ncc45)nccc23)CC1(F)F [Ex-132]
13.9

Fill in reported IC50 for this entry: CCC1CCc2cc3[nH]ncc3c(-c3nccc4c3sc3nc(OC[C@@]56CCCN5C[C@H](F)C6)nc(N5CCOC[C@@](C)(O)C5)c34)c21 (stereo partly drawn) [Ex-169]
13.5

Fill in reported IC50 for this entry: C[C@@]1(O)COCCN(c2nc(OC[C@@]34CCCN3C[C@H](F)C4)nc3sc4c(-c5cc(O)cc(Cl)c5C5CC5)nccc4c23)C1 [Ex-124]
24.1

Fill in reported IC50 for this entry: C[C@@]1(O)COCCN(c2nc(OC[C@@]34CCCN3C[C@H](F)C4)nc3sc4c(-c5c(C6(F)CC6)c(C(F)(F)F)cc6[nH]ncc56)nccc4c23)C1 [Ex-55]
18.2

Fill in reported IC50 for this entry: CCC1c2c(cc3[nH]ncc3c2-c2nccc3c2sc2nc(OC[C@@]45CCCN4C[C@H](F)C5)nc(N4CCOC[C@@](C)(O)C4)c23)CC1(F)F (single isomer, unassigned) [Ex-108]
5.41

Fill in reported IC50 for this entry: Cc1c(C(F)(F)F)c(-c2nccc3c2sc2nc(OC[C@@]45CCCN4C[C@H](F)C5)nc(N4CCOC[C@@](C)(O)C4)c23)c2cn[nH]c2c1F [Ex-44]
242
